# tested target: ETS1 (UniProt P14921)
# Sequence: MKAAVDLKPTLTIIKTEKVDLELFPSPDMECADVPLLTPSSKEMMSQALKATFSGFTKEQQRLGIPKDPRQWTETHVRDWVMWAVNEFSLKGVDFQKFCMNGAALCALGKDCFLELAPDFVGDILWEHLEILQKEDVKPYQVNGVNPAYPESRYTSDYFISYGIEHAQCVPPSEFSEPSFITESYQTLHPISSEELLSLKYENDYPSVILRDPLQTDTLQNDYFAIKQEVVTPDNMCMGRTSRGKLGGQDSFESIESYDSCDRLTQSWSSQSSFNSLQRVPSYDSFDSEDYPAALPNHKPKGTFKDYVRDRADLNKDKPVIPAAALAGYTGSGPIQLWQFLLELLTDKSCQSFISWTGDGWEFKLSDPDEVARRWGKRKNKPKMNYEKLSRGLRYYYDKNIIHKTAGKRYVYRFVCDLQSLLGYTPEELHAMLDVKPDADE
# experiment: TF binding intensity (PBM fluorescence), negative control probe (arbitrary fluorescence units); higher = stronger binding
assay readout: TF binding intensity
Give your answer as a number; write no unit.

Would you mind telling me what TF binding intensity value was observed for CAGGCAGCATCTGGGGGTGTGTGGGTTTGGCAAGCT (protein concentration 10 nM) ?
134

Would you mind telling me what TF binding intensity value was observed for GAAAGAGGCACATGGTGCCTCACAGCCTCCTCCCAG (protein concentration 10 nM) ?
128

Would you mind telling me what TF binding intensity value was observed for CTCCACGACCCTGAAACTAGAACAAGACCTCTCCTC (protein concentration 10 nM) ?
165

Would you mind telling me what TF binding intensity value was observed for GGGGGTATAGGGGAGCAGTCCCATGTAGTAGTAGAA (protein concentration 10 nM) ?
172

Would you mind telling me what TF binding intensity value was observed for TTATCAAGTGAATCAAGCCATTGTCGGGTCGAAATA (protein concentration 10 nM) ?
117

Would you mind telling me what TF binding intensity value was observed for AGGTGATATCTATCCCTTTCATTTCTTCTGAACAGG (protein concentration 10 nM) ?
114

Would you mind telling me what TF binding intensity value was observed for GAACTAACGAGGTCACTGAGAAATTACAAAGTGTGA (protein concentration 10 nM) ?
107

Would you mind telling me what TF binding intensity value was observed for GATAGACATATAAAAACCACAAAAATCAAAACTGCA (protein concentration 1 nM) ?
485
